Catalogue of residual activity readings, one per entry.
molecular target: STK33 (human); experiment: radiometric filter-binding kinase assay, Kinase HotSpot; details: compound 0.5 µM; ATP 10 µM
Form entry: value (%) — number only.

The reported residual activity of the molecule COc1ccc(S(=O)(=O)N(CCO)c2ccccc2CN(C)C/C=C/c2ccc(Cl)cc2)cc1 was 97.3

The reported residual activity of the molecule COc1cc2ncnc(Nc3ccc(Oc4ccccc4)cc3)c2cc1OC was 96.3

The reported residual activity of the molecule CN1CCN(c2ccc3nc(-c4c(N)c5c(F)cccc5[nH]c4=O)[nH]c3c2)CC1 was 60.7

The reported residual activity of the molecule O=C(c1cc2cc(O)ccc2[nH]1)c1cc2cc(O)ccc2[nH]1 was 77.5

The reported residual activity of the molecule c1ccc2c(-c3ccncc3)c[nH]c2c1 was 97.3

###

target: PIM1 (human) (UniProt P11309); test: radiometric filter-binding kinase assay, Kinase HotSpot; details: compound 0.5 µM; ATP 10 µM
Sequence (P11309 whole entry, looked up): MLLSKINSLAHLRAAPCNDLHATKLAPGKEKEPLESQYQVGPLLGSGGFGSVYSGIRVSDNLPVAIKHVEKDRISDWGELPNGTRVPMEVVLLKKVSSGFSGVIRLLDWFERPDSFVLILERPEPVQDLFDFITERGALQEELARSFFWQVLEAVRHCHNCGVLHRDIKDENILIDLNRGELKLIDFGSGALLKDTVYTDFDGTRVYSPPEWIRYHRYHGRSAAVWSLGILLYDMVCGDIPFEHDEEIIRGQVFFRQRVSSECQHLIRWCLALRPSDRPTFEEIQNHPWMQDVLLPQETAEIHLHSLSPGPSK
measure_name: residual activity (%)
Form entry: value (%) — number only.

Study these solved cases before continuing.
The reported residual activity of the compound Cc1cncc2cccc(S(=O)(=O)N3CCCN(C(=O)CN)C[C@H]3C)c12 was 105

The reported residual activity of the compound COc1ccc(Cl)cc1NC(=O)Nc1cc(C)nc2ccccc12 was 98.1

The reported residual activity of the compound COc1ccc2c(c1)/C(=C/c1cnc[nH]1)C(O)=N2 was 90.8

The reported residual activity of the compound N#C/C(=C\c1ccc(O)c(O)c1)C(=O)NCc1ccccc1 was 108

The reported residual activity of the compound CO[C@@H]1[C@H](N(C)C(=O)c2ccccc2)C[C@H]2O[C@]1(C)n1c3ccccc3c3c4c(c5c6ccccc6n2c5c31)C(=O)NC4 was 41.2

The reported residual activity of the compound COc1cc2ncnc(Nc3ccc(OCc4ccccc4)cc3)c2cc1OC was 102

The reported residual activity of the compound Cc1cccc(-c2nc(C(C)(C)C)[nH]c2-c2ccc3c(c2)OCO3)n1 was 100

The reported residual activity of the compound COc1cc(Nc2c(C#N)cnc3cc(OCCCN4CCN(C)CC4)c(OC)cc23)c(Cl)cc1Cl was 99.2

---
The reported residual activity of the compound O=C1NC(=O)c2c1c1c3ccccc3[nH]c1n1cncc21 was 1.43

The reported residual activity of the compound O=C1Nc2ccc(Br)cc2/C1=C\c1cc2c([nH]1)CCCC2 was 101

###

target: NTRK2 (human); assay: radiometric filter-binding kinase assay, Kinase HotSpot; settings: compound 0.5 µM; ATP 10 µM
measure_name: residual activity

Study these solved cases before continuing.
The reported residual activity of the molecule Cc1cncc2cccc(S(=O)(=O)N3CCCN(C(=O)CN)C[C@H]3C)c12 was 102%

The reported residual activity of the molecule CC(C)(C)c1cc(C=C(C#N)C#N)cc(Br)c1O was 90.9%

The reported residual activity of the molecule c1ccc2c(-c3ccncc3)c[nH]c2c1 was 107%

The reported residual activity of the molecule N#C/C(=C\c1ccc(O)c(O)c1)C(=O)NCc1ccccc1 was 94.5%

The reported residual activity of the molecule O=C(c1cc2cc(O)ccc2[nH]1)c1cc2cc(O)ccc2[nH]1 was 37%

The reported residual activity of the molecule NC(=O)c1cccc(-c2cc(Nc3ccc(OC(F)(F)F)cc3)ncn2)c1 was 96%

The reported residual activity of the molecule C[C@@H]1CCN(C(=O)CC#N)C[C@@H]1N(C)c1ncnc2[nH]ccc12 was 97.1%

The reported residual activity of the molecule COc1cc(Nc2c(C#N)cnc3cc(OCCCN4CCN(C)CC4)c(OC)cc23)c(Cl)cc1Cl was 69.2%

---
The reported residual activity of the molecule COc1cc2ncnc(Nc3ccc(OCc4ccccc4)cc3)c2cc1OC was 92.5%

The reported residual activity of the molecule COc1ccc2c(c1)c(C1=C(c3c[nH]c4ccccc34)C(=O)NC1=O)cn2CCCN(C)C was 88.1%

The reported residual activity of the molecule Fc1ccc(-c2nc3n(c2-c2ccncc2)CCS3)cc1 was 103%

The reported residual activity of the molecule Cn1c2ccccc2c2c3c(c4c5ccccc5n(CCC#N)c4c21)CNC3=O was 0.815%

The reported residual activity of the molecule CO[C@@H]1[C@H](N(C)C(=O)c2ccccc2)C[C@H]2O[C@]1(C)n1c3ccccc3c3c4c(c5c6ccccc6n2c5c31)C(=O)NC4 was 12.8%

The reported residual activity of the molecule O=C1Nc2ccc(Br)cc2/C1=C\c1cc2c([nH]1)CCCC2 was 43.6%

###

tested on: FLT4 (human), P35916 [Q890H]; assay: radiometric filter-binding kinase assay, Kinase HotSpot; conditions: compound 0.5 µM; ATP 10 µM
Sequence (P35916 whole entry, looked up, stated change not applied): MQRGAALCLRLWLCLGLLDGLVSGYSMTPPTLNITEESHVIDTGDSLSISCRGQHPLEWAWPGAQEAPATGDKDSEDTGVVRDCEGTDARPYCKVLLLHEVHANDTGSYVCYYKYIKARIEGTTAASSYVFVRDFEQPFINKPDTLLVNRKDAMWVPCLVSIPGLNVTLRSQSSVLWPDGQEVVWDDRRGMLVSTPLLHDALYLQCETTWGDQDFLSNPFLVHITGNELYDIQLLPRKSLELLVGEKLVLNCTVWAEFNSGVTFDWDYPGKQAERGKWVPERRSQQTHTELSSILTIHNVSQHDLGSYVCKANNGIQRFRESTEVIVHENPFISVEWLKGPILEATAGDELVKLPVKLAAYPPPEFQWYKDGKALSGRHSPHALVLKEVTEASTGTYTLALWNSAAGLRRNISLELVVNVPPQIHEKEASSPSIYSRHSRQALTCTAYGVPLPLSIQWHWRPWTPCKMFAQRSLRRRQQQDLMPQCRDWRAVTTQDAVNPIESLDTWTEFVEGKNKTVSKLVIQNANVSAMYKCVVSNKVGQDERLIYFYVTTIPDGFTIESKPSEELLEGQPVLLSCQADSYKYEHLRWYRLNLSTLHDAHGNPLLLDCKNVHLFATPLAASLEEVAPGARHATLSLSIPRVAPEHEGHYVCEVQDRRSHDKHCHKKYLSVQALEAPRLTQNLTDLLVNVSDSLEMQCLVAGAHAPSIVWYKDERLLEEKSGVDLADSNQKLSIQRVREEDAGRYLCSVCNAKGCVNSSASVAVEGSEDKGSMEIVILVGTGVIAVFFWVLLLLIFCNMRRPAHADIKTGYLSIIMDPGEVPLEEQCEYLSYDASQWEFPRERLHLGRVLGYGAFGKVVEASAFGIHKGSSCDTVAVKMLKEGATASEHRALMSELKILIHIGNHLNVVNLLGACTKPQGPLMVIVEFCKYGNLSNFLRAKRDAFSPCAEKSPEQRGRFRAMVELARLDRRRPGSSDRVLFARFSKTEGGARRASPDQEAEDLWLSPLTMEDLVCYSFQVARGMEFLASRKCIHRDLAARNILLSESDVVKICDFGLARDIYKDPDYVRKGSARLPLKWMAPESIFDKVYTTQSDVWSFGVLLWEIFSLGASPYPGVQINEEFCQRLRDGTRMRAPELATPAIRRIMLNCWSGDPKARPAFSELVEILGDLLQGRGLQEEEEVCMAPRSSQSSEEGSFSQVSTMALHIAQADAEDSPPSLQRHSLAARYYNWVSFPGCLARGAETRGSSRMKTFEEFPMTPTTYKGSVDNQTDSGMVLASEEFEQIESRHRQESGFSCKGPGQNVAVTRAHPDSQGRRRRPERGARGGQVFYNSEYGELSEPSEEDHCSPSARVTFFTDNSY
Catalogue of residual activity readings, one per entry.
Form entry: value (%) — number only.

Study these solved cases before continuing.
Form field, residual activity with FLT4 (human), P35916 [Q890H], item CN(C)C[C@H]1CCn2c(c(C3=C(c4cn(C)c5ccccc45)C(=O)NC3=O)c3ccccc32)C1 : 114

Form field, residual activity with FLT4 (human), P35916 [Q890H], item Cc1cncc2cccc(S(=O)(=O)N3CCCN(C(=O)CN)C[C@H]3C)c12 : 113

Form field, residual activity with FLT4 (human), P35916 [Q890H], item COc1cc2ncc(-c3ccccc3)nc2cc1OC : 90.4

Form field, residual activity with FLT4 (human), P35916 [Q890H], item COc1cc2c(N3CCN(C(=O)Nc4ccc(OC(C)C)cc4)CC3)ncnc2cc1OCCCN1CCCCC1 : 94.6

Form field, residual activity with FLT4 (human), P35916 [Q890H], item CCC(=O)Nc1ccc2ncnc(Nc3cccc(Br)c3)c2c1 : 91.5

Form field, residual activity with FLT4 (human), P35916 [Q890H], item O=C1Cc2c([nH]c3ccc(Br)cc23)-c2ccccc2N1 : 78.7

---
Form field, residual activity with FLT4 (human), P35916 [Q890H], item O=C1NC(=O)c2c1c1c3ccccc3[nH]c1c1[nH]c3cc(Br)ccc3c21 : 28

Form field, residual activity with FLT4 (human), P35916 [Q890H], item O=C1Nc2ccc(Cl)cc2/C1=C/c1cc(Cl)c(O)c(Cl)c1 : 87.3

Form field, residual activity with FLT4 (human), P35916 [Q890H], item NC(=O)c1cccc(-c2cc(Nc3ccc(OC(F)(F)F)cc3)ncn2)c1 : 98.5

Form field, residual activity with FLT4 (human), P35916 [Q890H], item O=C(Nc1cccc(Nc2nccc(Nc3cccc(C(F)(F)F)c3)n2)c1)C1CC1 : 95.9

Form field, residual activity with FLT4 (human), P35916 [Q890H], item O=C1Nc2cc(Br)ccc2/C1=C1/Nc2ccccc2/C1=N\O : 50.8

Form field, residual activity with FLT4 (human), P35916 [Q890H], item COc1cc2nccc(Oc3ccc(NC(=S)NC(=O)c4ccccc4C)cc3)c2cc1OC : 73.8

Form field, residual activity with FLT4 (human), P35916 [Q890H], item O=c1[nH]c2ccccc2n1C1CCN(Cc2ccc(-c3nc4cc5[nH]cnc5cc4nc3-c3ccccc3)cc2)CC1 : 98.7

Form field, residual activity with FLT4 (human), P35916 [Q890H], item Cn1c2ccccc2c2c3c(c4c5ccccc5n(CCC#N)c4c21)CNC3=O : 38.2

Form field, residual activity with FLT4 (human), P35916 [Q890H], item O=c1cc(N2CCOCC2)oc2c(-c3ccccc3)cccc12 : 96.4

Form field, residual activity with FLT4 (human), P35916 [Q890H], item CC(C)(C)c1nc2c3ccc(F)cc3c3c(=O)[nH]ccc3c2[nH]1 : 71.2

Form field, residual activity with FLT4 (human), P35916 [Q890H], item Cc1cc2ncc(-c3ccccc3)nc2cc1C : 115

Form field, residual activity with FLT4 (human), P35916 [Q890H], item Oc1ccc(Nc2nc(-c3ccc(Cl)cc3)cs2)cc1 : 101

Form field, residual activity with FLT4 (human), P35916 [Q890H], item Ic1cccc(CSc2nnc(-c3ccncc3)o2)c1 : 96.2

Form field, residual activity with FLT4 (human), P35916 [Q890H], item Cc1nc(-c2ccccc2)c(-c2ccncc2)o1 : 108

Form field, residual activity with FLT4 (human), P35916 [Q890H], item O=c1cc(-c2cccc3c2Sc2ccccc2S3)oc(N2CCOCC2)c1 : 104

Form field, residual activity with FLT4 (human), P35916 [Q890H], item COc1cc2ncnc(Nc3cccc(Cl)c3)c2cc1OC : 99.3

###

biological target: UniProtKB O15111; assay: radiometric filter-binding kinase assay, Kinase HotSpot; details: compound 0.5 µM; ATP 10 µM
Sequence (O15111 whole entry, looked up): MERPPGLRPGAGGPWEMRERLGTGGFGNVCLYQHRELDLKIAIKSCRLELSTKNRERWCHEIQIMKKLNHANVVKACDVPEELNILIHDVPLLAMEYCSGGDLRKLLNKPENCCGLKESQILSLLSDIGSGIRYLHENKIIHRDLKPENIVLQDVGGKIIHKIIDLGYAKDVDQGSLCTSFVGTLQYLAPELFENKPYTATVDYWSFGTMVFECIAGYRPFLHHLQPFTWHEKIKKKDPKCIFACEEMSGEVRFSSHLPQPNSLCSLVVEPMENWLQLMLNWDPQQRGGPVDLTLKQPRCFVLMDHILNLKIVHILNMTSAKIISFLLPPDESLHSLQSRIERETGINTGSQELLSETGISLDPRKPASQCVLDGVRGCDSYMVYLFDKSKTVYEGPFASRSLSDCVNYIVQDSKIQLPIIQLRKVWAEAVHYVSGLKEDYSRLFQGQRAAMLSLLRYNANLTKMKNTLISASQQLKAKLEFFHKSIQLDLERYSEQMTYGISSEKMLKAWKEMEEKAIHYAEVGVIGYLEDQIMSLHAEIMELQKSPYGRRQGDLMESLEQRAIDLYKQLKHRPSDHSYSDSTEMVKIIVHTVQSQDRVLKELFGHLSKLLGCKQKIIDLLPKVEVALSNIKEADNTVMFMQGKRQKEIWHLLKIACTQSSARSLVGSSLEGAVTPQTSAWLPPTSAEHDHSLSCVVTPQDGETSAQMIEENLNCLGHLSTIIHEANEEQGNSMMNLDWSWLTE
measure_name: residual activity (%)
Form entry: value (%) — number only.

The reported residual activity of the compound O=C1Nc2ccc(Br)cc2/C1=C\c1cc2c([nH]1)CCCC2 was 99.1

The reported residual activity of the compound Fc1ccc(-c2nc3n(c2-c2ccncc2)CCS3)cc1 was 104

The reported residual activity of the compound O=C1NC(=O)c2c1c1c3ccccc3[nH]c1n1cncc21 was 100

The reported residual activity of the compound CN(C)c1ccc(/C=C2\C(=O)Nc3ccccc32)cc1 was 93.4

The reported residual activity of the compound O=C1c2ccccc2-c2nc3nnnn3nc21 was 72

The reported residual activity of the compound Cc1cncc2cccc(S(=O)(=O)N3CCCN(C(=O)CN)C[C@H]3C)c12 was 105

---
The reported residual activity of the compound COc1ccc2c(c1)c(C1=C(c3c[nH]c4ccccc34)C(=O)NC1=O)cn2CCCN(C)C was 96.5
